Task for the reader: assign each of the following molecules its reported TGI.
System: HOP-92 NSCLC
Assay: NCI tumour cell line growth inhibition, 48 h
*1 amine or outer side, *2 acyl side, *3 side chain or, on linkers, in order; H or OH if unused. Where a SMILES comes first, the peptide text is derived from it. [ ]: non-standard residue; d: D form. ξ: configuration not given here. X22 = O=C(C(CC(O)CO)O[*:1])[*:2]; Ile(3ξ) = CCC(C)[C@H](N)C(=O)O; NMeV = CN[C@H](C(=O)O)C(C)C; NMeA = CN[C@@H](C)C(=O)O; βAla = NCCC(=O)O

[Q] Entry CCC(C)[C@@H]1NC(=O)[C@@H]2CCCN2C(=O)C(CC(O)CO)OC(=O)CCNC(=O)[C@H](C)N(C)C(=O)[C@H](C(C)C)N(C)C1=O (stereo partly specified) (cyclo([Ile(3ξ)][NMeV][NMeA][βAla][X22]P)) has what TGI?
[A] > 100 µM

[Q] Entry COC(=O)/C=C(\C)CC/C=C(\C)CCC(O)C(C)(C)O (stereo unspecified) : reported TGI = ?
[A] > 100 µM

[Q] Query (molecule): CCOP(=O)(OCC)C(Nc1cccc(F)c1)c1ccc(N(C)C)cc1 (stereo unspecified) ; field requested: TGI
[A] > 100 µM

[Q] Request the reported TGI associated with N#CC1C(=O)NC(=O)C1=O (stereo unspecified)
[A] > 100 µM

[Q] Recorded TGI for "O=C(O)c1nc2ccccc2nc1NCc1ccc(F)cc1" , please?
[A] > 100 µM

[Q] Fill in the blank: the reported TGI of "COc1ccc(C(=C2C(=O)N(c3ccccc3)C(=O)C2=C(C)C)c2ccc(OC)cc2)cc1" is ____.
[A] > 31.6 µM

[Q] If you can, please state the reported TGI value of "CCSc1nnc(-c2ccccc2)nc1Cc1ccc(OC)cc1" .
[A] > 100 µM

[Q] What value of TGI has been recorded for this entry: "NNc1ncc2c(n1)-c1ccccc1OC2"
[A] > 100 µM

[Q] Query (molecule): "c1c2c(cc3c1OCO3)-c1cc3ccc4c(c3c[n+]1CC2)OCO4" ; field requested: TGI
[A] > 12.5 µM

[Q] Quick one: TGI of "O=C(N/N=C/c1ccc(Cl)cc1)c1ccccc1Nc1ccccc1C(=O)N/N=C/c1ccc(Cl)cc1" ?
[A] > 100 µM

[Q] Return reported TGI; argument: COc1ccc(/C=C2\CCC(Cc3ccccc3)(CN(C)C)C2=O)cc1 (stereo unspecified)
[A] > 100 µM

###

For each record, write down the corresponding TGI.
Tested on: HOP-92 NSCLC
Assay: NCI tumour cell line growth inhibition, 48 h

[Q] Name the recorded TGI for O=C1CSC(c2ccccc2O)N1c1nc2cc3sc(N4C(=O)CSC4c4ccccc4O)nc3cc2s1 (stereo unspecified) .
[A] > 100 µM

[Q] # query: TGI of entry "O=C1N(CN2CCOCC2)CN(CN2CCOCC2)C(=O)N1Cc1ccc(CN2C(=O)N(CN3CCOCC3)CN(CN3CCOCC3)C2=O)cc1"
[A] > 100 µM

[Q] // lookup TGI for "N#Cc1c(N)c(C#N)c2c(c1-c1ccc(Cl)cc1)COc1ccc(F)cc1-2"
[A] > 50 µM

[Q] Which measured TGI value corresponds to "CCO[C@]12CCC[C@H]1[C@@H]1C(=O)c3ccccc3C(=O)C1=C(C)O2" ?
[A] > 100 µM

[Q] So what's the measured TGI for this one? "COc1ccc(-c2nc3sccn3c2-c2ccnc(NCCCNS(=O)(=O)c3ccc(F)cc3)n2)cc1"
[A] > 100 µM

[Q] Recorded TGI for CC1OC(OCC2OC(Oc3ccc(C4CC(=O)c5c(O)cc(O)cc5O4)cc3O)C(O)C(O)C2O)C(O)C(O)C1O (stereo unspecified) , please?
[A] > 100 µM

###

Test system: OVCAR-4 ovarian
Experiment: NCI tumour cell line growth inhibition, 48 h
Please provide measured TGI for the entries that follow.
Respond with the bare value in µM.

[Q] Which TGI value is on record for Cc1ccc(S(=O)(=O)N/N=C2\CC(C)OC3=C2CCCCCC3)cc1 (stereo not drawn) ?
[A] 35.6

[Q] State the recorded TGI for this entry: Cc1cc2c(cc1Cl)SC(C(=O)c1ccc(Cl)c(Cl)c1)NS2(=O)=O (stereo not drawn)
[A] 71.5

###

Please go through the items and note down their TGI.
Tested on: MDA-MB-435
Assay: NCI tumour cell line growth inhibition, 48 h

[Q] Provide value of TGI for this record tested with MDA-MB-435: CCCCc1ccc(Nc2nc(Cl)c3ncn(C4CC(Oc5ccc(C)cc5)C(COc5ccc(C)cc5)O4)c3n2)cc1 (stereo not given)
[A] > 100 µM

[Q] Which TGI is reported with MDA-MB-435 for this entry: "CCO[C@]12CCC[C@H]1[C@@H]1C(=O)c3ccccc3C(=O)C1=C(C)O2" ?
[A] > 100 µM

[Q] Can you look up TGI on MDA-MB-435 for "Cc1cc2c(cc1C)C(=O)/C(=C/c1ccccc1C(=O)O)C2" ?
[A] > 100 µM

[Q] Form: Entry = C=C1CC(C)(COc2ccc3c(C)cc(=O)oc3c2)OC1=O (stereo not given) | System = MDA-MB-435 | TGI = ____
[A] 8.92 µM

[Q] Notebook entry, MDA-MB-435 assay: TGI of "COc1ccc2c(c1)C(=O)c1c-2c(N2CCN(C(=O)CCNCCNCCO)CC2)nc2ccccc12" = ?
[A] 47.8 µM

[Q] For the record "C#Cc1ccc(-n2c(/C=C/c3ccc4ccccc4c3)nc3ncccc3c2=O)cc1" , what value of TGI is listed for MDA-MB-435?
[A] > 100 µM

[Q] Enter reported TGI observed with MDA-MB-435 for "COc1cc(/C=C/c2cc(O)c(C/C=C(\C)CC/C=C(\C)CO)c(O)c2)cc2c1O[C@]1(C)CC[C@@H](O)C(C)(C)[C@H]1C2"
[A] > 79.6 µM

[Q] For the record CC1COCCN1CC#CCOC(=O)c1cc2ccccc2oc1=O (stereo not given) , what value of TGI is listed for MDA-MB-435?
[A] > 100 µM

[Q] Provide the documented TGI with MDA-MB-435 as the system for "CO/N=C(\C)c1cccc(Nc2nc3ccccc3c3occc23)c1"
[A] 25.4 µM

[Q] API: value(readout= TGI, system= MDA-MB-435, query= "CC(=O)C(C=O)C(C)=O.CC(=O)CC(C)=O.CC(=O)CC(C)=O.[Ru]" )
[A] > 100 µM

###

Give TGI for every item shown.
Test system: IGROV1 ovarian
Test: NCI tumour cell line growth inhibition, 48 h

[Q] Request - read-out TGI | tested on IGROV1 ovarian | molecule "O=C(N/N=C/c1ccc(Cl)cc1)c1ccccc1Nc1ccccc1C(=O)N/N=C/c1ccc(Cl)cc1"
[A] > 100 µM

[Q] Short answer please: TGI, IGROV1 ovarian, entry CC(=O)NC(CCCNC(=O)OCc1ccccc1)C(=O)O (stereo unspecified)
[A] > 100 µM

[Q] Query for IGROV1 ovarian: what TGI does the record show for "COC(=O)NC(=O)c1cn(C2CCCCC2)c(=O)[nH]c1=O" ?
[A] > 100 µM

[Q] Item: "Cc1nc2ccc(N)cc2[nH]c1=O" Test system: IGROV1 ovarian Read-out: TGI Value: ?
[A] > 100 µM

[Q] Form: Entry = "Cc1ccc(/C=C2\NC(=S)N(CN3CCCCC3)C2=O)cc1" | System = IGROV1 ovarian | TGI = ____
[A] > 100 µM

[Q] Please state recorded TGI (tested on IGROV1 ovarian) of CCCCC(C(=O)CCC(=O)Nc1ccc(Cl)cc1)C(=O)C(C)C (stereo unspecified)
[A] > 100 µM

###

Test system: NCI/ADR-RES ovarian
Test: NCI tumour cell line growth inhibition, 48 h
quantity: log10(TGI) (log10 of the value in µM)
Give log10 of TGI, with TGI taken in µM.

[Q] Value lookup for log10(TGI); key = CC1(O)COCCCCOc2c(CN)cccc2NC(=O)c2nc(cnc2N)-c2ccc(cc2)S(=O)(=O)C(C)(C)C1 (stereo not given)
[A] 0.60

[Q] Would you kindly share the measured log10(TGI) for "CO/N=C(\C)c1cccc(Nc2nc3ccccc3c3occc23)c1" ?
[A] 1.49

[Q] What measured log10(TGI) goes with "c1ccc2c3nnc(c2c1)SCCCSc1nnc(c2ccccc12)SCCCS3" ?
[A] 1.94

[Q] Consider the compound shown here: "CC1(C)OC(=O)C(=Cc2ccc([N+](=O)[O-])s2)C(=O)O1" What is its recorded log10(TGI)?
[A] 1.60

[Q] Please give the measured log10(TGI) for this compound: "OCc1ccc(N(Cc2ccc(F)cc2)CC2CCC2)cc1Cl"
[A] 1.45

###

System: 786-0 renal
Test: NCI tumour cell line growth inhibition, 48 h
quantity: TGI

[Q] I am curious: what TGI value has been reported for "CCc1ccc([O-])c(C=NCCCN(C)CCCN=Cc2cc(C)ccc2[O-])c1.[Co+3].[N-]=[N+]=[N-]" ?
[A] 50 µg/mL

[Q] Query: TGI; subject: "O=C1NC(=N[C@H](CO)c2ccccc2)S/C1=C\c1ccc2ncccc2c1"
[A] > 25 µM

[Q] Can you share its TGI? I mean this compound: ClCCCCOC1CCCCO1 (stereo not drawn)
[A] > 100 µM
